- TARGET_SYSTEM: GST-His6-HBD (UniProt O60930)
- Sequence (O60930 whole entry, looked up): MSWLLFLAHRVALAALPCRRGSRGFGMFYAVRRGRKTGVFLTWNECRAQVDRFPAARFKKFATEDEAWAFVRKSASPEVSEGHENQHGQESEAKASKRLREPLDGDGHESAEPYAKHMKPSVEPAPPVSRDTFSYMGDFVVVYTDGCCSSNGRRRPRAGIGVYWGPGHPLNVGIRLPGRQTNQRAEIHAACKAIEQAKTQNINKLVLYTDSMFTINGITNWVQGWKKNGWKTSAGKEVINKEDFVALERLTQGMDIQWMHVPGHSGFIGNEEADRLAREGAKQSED
- ASSAY_TEXT: BLI
- APPLIED_CONDITIONS: EMSA: 30 nM probe, 20 mM Hepes pH 7.0, 100 mM NaCl, 5% glycerol, 10 mM DTT, 0.5 mM EDTA, 5 ug/ml salmon sperm DNA, 25°C 30 min; BLI: 20 mM Hepes-NaOH pH 7.5 …
MEASURED_PARAMETER: Kd (nM)

INSERT INTO assay_data (biosequence, quantity_unit, reading) VALUES
  ('AGCGTGCCGTGCAACAACATTACAC / GUGUAAUGUUGUUGCACGGCACGCU [biotin DNA-RNA hybrid 25-mer (BLI)]', 'nM', 16.5);
